Entries annotated with measured GI50
# Test system: SF-295 CNS
# EXPERIMENTAL DETAILS: NCI tumour cell line growth inhibition, 48 h

{"COMPOUND": "C=C1CCC2C3(C)COC(C)(C)OC3CCC2(C)C1C/C=C1/C(=O)OCC1OC(C)=O (stereo unspecified)", "GI50": "11.5 µM"}
{"COMPOUND": "CC(CO)Nc1cc(-c2[nH]c3cccnc3c2-c2ccc(F)cc2)ccn1 (stereo unspecified)", "GI50": "> 25 µM"}
{"COMPOUND": "c1ccc(-c2nc(-c3ccccn3)nc(-c3ccccn3)n2)nc1", "GI50": "21.2 µM"}
{"COMPOUND": "c1cc[c]([Sn][c]2ccccc2)cc1", "GI50": "27.8 µM"}
{"COMPOUND": "O=S(=O)(Nc1ccc(Br)cc1)c1ccc(-c2cnc(C3CC3)o2)cc1", "GI50": "1.13 µM"}
{"COMPOUND": "Cc1cc([NH-])c([NH-])cc1C.[Cl][Pt+2][Cl]", "GI50": "3.36 µM"}

---

The entries below are paired with their reported TGI.
# Test system: SK-MEL-2 melanoma
# EXPERIMENTAL DETAILS: NCI tumour cell line growth inhibition, 48 h
READOUT: TGI

{"MOLECULE": "CCSC1=NC2C(N(CC)C(=O)N2CC)N1/N=C/C=C/c1ccccc1[N+](=O)[O-] (stereo not drawn)", "RECORDED MEASUREMENT": "> 100 µM"}
{"MOLECULE": "COc1ccc2c(c1)C(=O)CC1c3cnccc3C(=O)N21 (stereo not drawn)", "RECORDED MEASUREMENT": "> 100 µM"}
{"MOLECULE": "N#CCCN(CCC#N)c1ccc(/C=C2\\N=C(c3ccccc3)N(c3ccc(F)cc3)C2=O)cc1", "RECORDED MEASUREMENT": "> 100 µM"}

---

# Tested on: PC-3 prostate
# EXPERIMENTAL DETAILS: NCI tumour cell line growth inhibition, 48 h

{"COMPOUND": "CCn1nc(C)c2c1C(=O)NCC(=O)N2", "TGI": "> 100 µM"}
{"COMPOUND": "C=CCC1(C#N)C(=S)NC2=C(C(=O)CC(C)(C)C2)C1c1ccccc1 (stereo unspecified)", "TGI": "> 100 µM"}
{"COMPOUND": "COc1ccc2c(c1)C(=O)CC1c3cnccc3C(=O)N21 (stereo unspecified)", "TGI": "> 100 µM"}
{"COMPOUND": "C/C(CC(O)(C(F)(F)F)C(F)(F)F)=N\\NC(N)=O", "TGI": "> 10 µM"}
{"COMPOUND": "COc1ccc([C@H]2[C@H]3COC(=O)[C@H]3C(C#N)=C3Sc4ccccc4N32)cc1", "TGI": "> 100 µM"}
{"COMPOUND": "c1ccc(NN(Cc2cnccn2)c2ccccc2)cc1", "TGI": "> 100 µM"}
{"COMPOUND": "C[C@@H]1OC(=O)C[C@H]2CC(=O)N(CCC3CN(C(=O)OCc4ccccc4)c4ccccc43)C[C@@H]21 (stereo partly specified)", "TGI": "> 100 µM"}
{"COMPOUND": "CN(C)CC(O)c1ccc(Cl)c2ccccc12 (stereo unspecified)", "TGI": "> 72.3 µM"}
{"COMPOUND": "CCSCCCSCCSCC", "TGI": "> 100 µM"}
{"COMPOUND": "O=c1oc2ccccc2c2c1Sc1ccccc1N2", "TGI": "> 100 µM"}
{"COMPOUND": "COC(=O)C1=C(O)C(C(=O)OC)C2CC(=O)CC1C2(C)C (stereo unspecified)", "TGI": "> 100 µM"}
{"COMPOUND": "COc1cc(C2c3c(ccc4ccccc34)C(=O)C3CCC(=O)N32)cc(OC)c1OC (stereo unspecified)", "TGI": "> 50 µM"}
{"COMPOUND": "COc1cccc(N2C(=O)CSC2c2cccc(Oc3ccccc3)c2)c1 (stereo unspecified)", "TGI": "> 100 µM"}
{"COMPOUND": "CCC/C(Cl)=N\\OC(=O)Nc1ccc(F)cc1", "TGI": "31.2 µM"}
{"COMPOUND": "COc1ccc2c(c1)C(=O)/C(=C/c1cccc(OCC(=O)c3ccccc3)c1)CC2", "TGI": "> 100 µM"}
{"COMPOUND": "C1CSCCCSCCCSCCCSCCCSCCCSCCCSCCCSC1", "TGI": "> 100 µM"}
{"COMPOUND": "Fc1ccc(C(OCCN2CCN(CCCc3ccccc3)CC2)c2ccc(F)cc2)cc1", "TGI": "12 µM"}
{"COMPOUND": "C=CCn1c(=O)c(C)cn(COCCO)c1=O", "TGI": "> 100 µM"}
{"COMPOUND": "O=c1[nH]c2nc3ccccc3c(=O)n2/c1=C/c1ccc(Cl)cc1", "TGI": "> 100 µM"}
{"COMPOUND": "O=[N+]([O-])c1ccccc1N=Nc1c(O)[nH]c2cccc(C(F)(F)F)c12", "TGI": "> 100 µM"}
{"COMPOUND": "CC(C)=CCN1c2ccccc2NC(=O)CC1C (stereo unspecified)", "TGI": "> 100 µM"}

---

Recorded measurements of TGI, one per entry
# Test system: SF-295 CNS
# EXPERIMENTAL DETAILS: NCI tumour cell line growth inhibition, 48 h

{"MOLECULE": "O=C(Nc1cccc(Cl)c1)Nn1cnnc1", "TGI": "> 100 µM"}
{"MOLECULE": "CC(=O)O[C@H]1CC(C)(C)C(=C=C/C(C)=C/C=C/C=C/C=C(C)/C=C2C=C(/C=C/[C@@]34O[C@]3(C)C[C@@H](O)CC4(C)C)C(=O)O/2)[C@](C)(O)C1", "TGI": "34.3 µM"}
{"MOLECULE": "Nc1ncn([C@@H]2S[C@H](CO)[C@@H](O)[C@@H]2F)c(=O)n1", "TGI": "> 100 µM"}
{"MOLECULE": "Cc1ccc(S(=O)(=O)NC(=O)Nc2nnc(S(N)(=O)=O)s2)cc1", "TGI": "> 100 µM"}
{"MOLECULE": "COc1ccc(-c2noc(C(=O)O)c2-c2cc(OC)c(OC)c(OC)c2)cc1", "TGI": "> 100 µM"}
{"MOLECULE": "CC(CO)Nc1cc(-c2[nH]c3cccnc3c2-c2ccc(F)cc2)ccn1 (stereo unspecified)", "TGI": "> 25 µM"}
{"MOLECULE": "COC(=O)C1=CO[C@@H](OC2CC(CO)C(O)C(O)C2O)[C@@H]2[C@@H](C)[C@@H](OC(=O)/C=C/c3ccccc3)[C@@H](O)[C@H]12 (stereo partly specified) (tested in a mixture with another compound)", "TGI": "> 100 µM"}
{"MOLECULE": "O=C1[C@H](O)[C@@H]2C(O)O[C@H]3[C@@H]2N1C[C@H]3[Si](c1ccccc1)(c1ccccc1)c1ccccc1 (stereo partly specified)", "TGI": "> 100 µM"}
{"MOLECULE": "Cc1cc([NH-])c([NH-])cc1C.[Cl][Pt+2][Cl]", "TGI": "16.1 µM"}
{"MOLECULE": "COC(=O)C1(NC(=O)C(CC(=O)OCc2ccccc2)NC(=O)OCc2ccccc2)CCCCCC1 (stereo unspecified)", "TGI": "> 100 µM"}
{"MOLECULE": "C[C@H](c1ccccc1)N1C(=O)[C@@H](O)[C@H]1[C@H](CO)OCc1ccccc1", "TGI": "> 100 µM"}

---

# Tested on: NCI-H522 lung
# EXPERIMENTAL DETAILS: NCI tumour cell line growth inhibition, 48 h
The entries below come with measured TGI values attached.
READOUT: TGI

{"COMPOUND": "COc1ccc(-c2noc(C(=O)O)c2-c2cc(OC)c(OC)c(OC)c2)cc1", "RECORDED MEASUREMENT": "> 100 µM"}
{"COMPOUND": "CC(CO)Nc1cc(-c2[nH]c3cccnc3c2-c2ccc(F)cc2)ccn1 (stereo not drawn)", "RECORDED MEASUREMENT": "> 25 µM"}
{"COMPOUND": "CC[O-].CC[O-].O=C([CH-]C(=O)c1ccccc1)CCCCCCCCC(=O)[CH-]C(=O)c1ccccc1.[Ti+4]", "RECORDED MEASUREMENT": "> 100 µM"}

---

# maps each entry to its TGI
# System: K-562 leukemia
# EXPERIMENTAL DETAILS: NCI tumour cell line growth inhibition, 48 h

{"MOLECULE": "COC(=O)[C@H]1C=NN[C@@H]1C(=O)N1[C@H]2CC3CC[C@@]2(CS1(=O)=O)C3(C)C", "STUDY SYSTEM": "K-562 leukemia", "TGI": "> 100 µM"}
{"MOLECULE": "COc1ccc2c(c1)C(=O)/C(=C/c1cccc(OCC(=O)c3ccccc3)c1)CC2", "STUDY SYSTEM": "K-562 leukemia", "TGI": "5.82 µM"}
{"MOLECULE": "O=C1CC(CC(=O)C2CCCCC2=O)C(=O)N1 (centres undefined)", "STUDY SYSTEM": "K-562 leukemia", "TGI": "> 100 µM"}
{"MOLECULE": "COc1cccc(-c2nc3cc(NC(=O)c4ccc(Cl)c(C#N)c4)ccc3o2)c1", "STUDY SYSTEM": "K-562 leukemia", "TGI": "> 100 µM"}
{"MOLECULE": "CCCN1C(=O)NC(=O)C(CC)(N2C(=O)c3c(F)c(F)c(F)c(F)c3C2=O)C1=O (centres undefined)", "STUDY SYSTEM": "K-562 leukemia", "TGI": "4.55 µM"}
{"MOLECULE": "CC(C)(C)c1ccccc1N1C(=O)c2ccc3c4c(ccc(c24)C1=O)N(c1ccccc1C(C)(C)C)C3=O", "STUDY SYSTEM": "K-562 leukemia", "TGI": "> 100 µM"}
{"MOLECULE": "O=C(O)CCNS(=O)(=O)c1ccc(NC(=O)c2ccccc2)cc1", "STUDY SYSTEM": "K-562 leukemia", "TGI": "> 100 µM"}
{"MOLECULE": "NC(=O)CNC(=O)[C@@H]1CC(OCCC(=O)O)CN1C(=O)C1CCCN1C(=O)OCc1ccccc1 (some centres undefined)", "STUDY SYSTEM": "K-562 leukemia", "TGI": "> 100 µM"}
{"MOLECULE": "O=C(Nc1ccc(N2C(=O)CSC2c2ccccc2O)cc1)c1ccc(N2C(=O)CSC2c2ccccc2O)cc1 (centres undefined)", "STUDY SYSTEM": "K-562 leukemia", "TGI": "> 100 µM"}
{"MOLECULE": "IC[P+]1(c2ccccc2)CCCC1", "STUDY SYSTEM": "K-562 leukemia", "TGI": "> 100 µM"}
{"MOLECULE": "N#C[Se]Cc1cc(-c2ccccc2)n(-c2ccc(S(N)(=O)=O)cc2)n1", "STUDY SYSTEM": "K-562 leukemia", "TGI": "9.88 µM"}
{"MOLECULE": "O=C(COc1ccccc1Cl)N1N=C(c2ccc(Cl)cc2)CC1(O)c1ccccc1 (centres undefined)", "STUDY SYSTEM": "K-562 leukemia", "TGI": "> 100 µM"}
{"MOLECULE": "O=C(O)CCc1nc2c(n1-c1ccccc1)C(=O)c1ccccc1C2=O", "STUDY SYSTEM": "K-562 leukemia", "TGI": "> 100 µM"}
{"MOLECULE": "Nc1nc2ccc(-c3nc4ccc5[nH]ncc5c4c4c3CCC4)cc2s1", "STUDY SYSTEM": "K-562 leukemia", "TGI": "33.2 µM"}
{"MOLECULE": "CCCCCOc1ccc(C=Nc2ccc(CCc3ccc(N=Cc4ccc(OCCCCC)cc4)cc3)cc2)cc1", "STUDY SYSTEM": "K-562 leukemia", "TGI": "> 100 µM"}
{"MOLECULE": "O=C(c1ccc2ccccc2c1)c1c(C(F)(F)F)n([O-])c2ccc(C(F)(F)F)cc2[n+]1=O", "STUDY SYSTEM": "K-562 leukemia", "TGI": "1.14 µM"}
{"MOLECULE": "C=CCC1(C#N)C(=S)NC2=C(C(=O)CC(C)(C)C2)C1c1ccccc1 (centres undefined)", "STUDY SYSTEM": "K-562 leukemia", "TGI": "> 100 µM"}
{"MOLECULE": "O=C(Nc1cccc(Cl)c1)Nn1cnnc1", "STUDY SYSTEM": "K-562 leukemia", "TGI": "> 100 µM"}
{"MOLECULE": "C[C@@]1(O)C2CC3CC1(c1ccccc1)CC(/C3=N/O)/C2=N\\O (some centres undefined)", "STUDY SYSTEM": "K-562 leukemia", "TGI": "> 100 µM"}
{"MOLECULE": "CC(=O)OCc1c2ccccc2c(C)c2c1cc(F)c1ccccc12", "STUDY SYSTEM": "K-562 leukemia", "TGI": "78.9 µM"}
{"MOLECULE": "c1ccc(NN(Cc2cnccn2)c2ccccc2)cc1", "STUDY SYSTEM": "K-562 leukemia", "TGI": "> 100 µM"}
{"MOLECULE": "O=[N+]([O-])c1ccccc1OCCOc1ccccc1[N+](=O)[O-]", "STUDY SYSTEM": "K-562 leukemia", "TGI": "> 100 µM"}
{"MOLECULE": "COC(=O)C1(NC(=O)C(CC(=O)OCc2ccccc2)NC(=O)OCc2ccccc2)CCCCCC1 (centres undefined)", "STUDY SYSTEM": "K-562 leukemia", "TGI": "82.9 µM"}
{"MOLECULE": "C=CCc1c(Cl)nc(Cl)nc1Cl", "STUDY SYSTEM": "K-562 leukemia", "TGI": "0.125 µM"}
{"MOLECULE": "COc1ccc2c(c1)C(=O)CC1c3cnccc3C(=O)N21 (centres undefined)", "STUDY SYSTEM": "K-562 leukemia", "TGI": "> 100 µM"}
{"MOLECULE": "CC(=O)O[C@H]1CC(C)(C)C(=C=C/C(C)=C/C=C/C=C/C=C(C)/C=C2C=C(/C=C/[C@@]34O[C@]3(C)C[C@@H](O)CC4(C)C)C(=O)O/2)[C@](C)(O)C1", "STUDY SYSTEM": "K-562 leukemia", "TGI": "57.2 µM"}
{"MOLECULE": "Fc1ccc(C(OCCN2CCN(CCCc3ccccc3)CC2)c2ccc(F)cc2)cc1", "STUDY SYSTEM": "K-562 leukemia", "TGI": "16.1 µM"}
{"MOLECULE": "CC(C)(C)c1ccc(OCCOc2ccc(C(C)(C)C)cc2N)c(N)c1", "STUDY SYSTEM": "K-562 leukemia", "TGI": "> 100 µM"}
{"MOLECULE": "CC(CO)Nc1cc(-c2[nH]c3cccnc3c2-c2ccc(F)cc2)ccn1 (centres undefined)", "STUDY SYSTEM": "K-562 leukemia", "TGI": "> 25 µM"}
